// data source = the supplement of paper PMC9694430

Tested on: LOC_OS05G16824-cb004
Experiment: thermal shift delta Tm vs DMSO control; higher = stronger stabilization (binding);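 also: purified Escherichia coli-expressed rice kinase domain construct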
Conditions: 12.5 µM; protein concentration 2 µM
Would you mind labelling by thermal shift delta Tm? At or over 0.8 °C is Met, under is Not met.

>  <COMPOUND>
Cc1cc(Nc2cc(CN3CCOCC3)c3nc(C)c(Cc4ccc(Cl)cc4F)n3n2)n[nH]1

>  <LABEL>
Met

$$$$
>  <COMPOUND>
COc1ccc2c(Oc3ccc(NC(=O)c4c(C)n(CC(C)(C)O)n(-c5ccccc5)c4=O)nc3)ccnc2c1

>  <LABEL>
Not met

$$$$
>  <COMPOUND>
Clc1ccc(Nc2nnc(Cc3ccncc3)c3ccccc23)cc1 [Vatalanib (PTK787) 2HCl]

>  <LABEL>
Not met

$$$$
>  <COMPOUND>
Cc1cc(C(=O)NOCCO)c(Nc2ccc(I)cc2F)n(C)c1=O

>  <LABEL>
Not met

$$$$
>  <COMPOUND>
CNC(=O)c1cc(Oc2ccc(NC(=O)Nc3ccc(Cl)c(C(F)(F)F)c3)c(F)c2)ccn1 [Regorafenib (BAY 73-4506)]

>  <LABEL>
Not met

$$$$
>  <COMPOUND>
C=CC(=O)Nc1cccc(Oc2nc(Nc3ccc(N4CCN(C)CC4)cc3OC)ncc2Cl)c1

>  <LABEL>
Not met

$$$$
>  <COMPOUND>
COc1ccc(-c2cc3c(C)nc(N)nc3n([C@H]3CC[C@H](OCCO)CC3)c2=O)cn1

>  <LABEL>
Not met

$$$$
>  <COMPOUND>
Cc1ccc(-n2nc(C(C)(C)C)cc2NC(=O)Nc2ccc(OCCN3CCOCC3)c3ccccc23)cc1 [Doramapimod (BIRB 796)]

>  <LABEL>
Not met

$$$$
>  <COMPOUND>
Nc1nc(Nc2ccc(S(N)(=O)=O)cc2)nn1C(=O)c1c(F)cccc1F

>  <LABEL>
Met

$$$$
>  <COMPOUND>
O=c1cc(N2CCOCC2)oc2c(-c3cccc4c3sc3ccccc34)cccc12

>  <LABEL>
Not met

$$$$
>  <COMPOUND>
N#C/C(=C\c1ccc(O)c(O)c1)C(=O)NCc1ccccc1 [AG-490 (Tyrphostin B42)]

>  <LABEL>
Not met

$$$$
>  <COMPOUND>
COc1ccc2[nH]cc(/C=C3\C(=O)Nc4ccc(NC(=O)CCN5CCCCC5)cc43)c2c1

>  <LABEL>
Met

$$$$
>  <COMPOUND>
O=c1cc(-c2ccccc2)oc2c(O)c(O)ccc12 [7,8-Dihydroxyflavone]

>  <LABEL>
Not met

$$$$
>  <COMPOUND>
Nc1nc(N)c2nc(-c3cccc(O)c3)c(-c3cccc(O)c3)nc2n1

>  <LABEL>
Not met

$$$$
>  <COMPOUND>
O=C(Nc1ccc(OC(F)(F)F)cc1)c1sccc1NCc1ccnc2ccccc12

>  <LABEL>
Not met

$$$$
>  <COMPOUND>
C=CC(=O)Nc1cccc(Oc2nc(Nc3ccc(N4CCN(C)CC4)cc3)nc3ccsc23)c1

>  <LABEL>
Met

$$$$
>  <COMPOUND>
CCN(CC)CCNC(=O)c1c(C)[nH]c(/C=C2\C(=O)Nc3ccc(F)cc32)c1C [Sunitinib]

>  <LABEL>
Met

$$$$
>  <COMPOUND>
O=c1ncn2nc(Sc3ccc(F)cc3F)ccc2c1-c1c(Cl)cccc1Cl

>  <LABEL>
Met

$$$$
>  <COMPOUND>
COc1ccc(Oc2cc(NCCC(F)(F)F)c3ncc(-c4ccc(C(=O)NC5CC5)c(C)c4)n3n2)c(F)c1F

>  <LABEL>
Not met

$$$$
>  <COMPOUND>
CN1CCN(c2ccc(OC(F)(F)F)c(Nc3ncc4c(n3)-c3c(c(C(N)=O)nn3CCO)CC4)c2)CC1

>  <LABEL>
Not met

$$$$
>  <COMPOUND>
O=c1c(O)c(-c2ccc(O)c(O)c2)oc2cc(O)cc(O)c12 [Quercetin]

>  <LABEL>
Met

$$$$
>  <COMPOUND>
O=C(Nc1cccc(C(F)(F)F)c1)c1cccc2cc(Oc3cc(CO)ncn3)ccc12

>  <LABEL>
Not met

$$$$
>  <COMPOUND>
C[C@H](Nc1ncnc2nc[nH]c12)c1cc2cccc(Cl)c2c(=O)n1-c1ccccc1 [Duvelisib (IPI-145, INK1197)]

>  <LABEL>
Met

$$$$
>  <COMPOUND>
N#Cc1c(O)c2c(-c3ccc(-c4ccccc4O)cc3)csc2[nH]c1=O

>  <LABEL>
Not met

$$$$
>  <COMPOUND>
Cn1cc(C2=C(c3ccc(Cl)cc3Cl)C(=O)NC2=O)c2ccccc21

>  <LABEL>
Not met

$$$$
>  <COMPOUND>
COc1cccc(-n2c(=O)[nH]c3cc(Cl)n(-c4ccc(-c5cccc(OC)c5O)cc4)c3c2=O)c1

>  <LABEL>
Not met

$$$$
>  <COMPOUND>
COc1ccccc1-c1cc(Nc2cccc(CS(N)(=O)=O)c2)ncn1

>  <LABEL>
Met

$$$$
>  <COMPOUND>
CNC(=O)Nc1ccc(-c2nc(N3CC4CCC(C3)O4)c3cnn(C4CCC5(CC4)OCCO5)c3n2)cc1

>  <LABEL>
Not met

$$$$
>  <COMPOUND>
CNC(=O)c1cc(Oc2ccc(NC(=O)Nc3ccc(Cl)c(C(F)(F)F)c3)cc2)ccn1 [Sorafenib]

>  <LABEL>
Met

$$$$

* * *

Tested on: LOC_OS01G14860-cb001
Experiment: thermal shift delta Tm vs DMSO control; higher = stronger stabilization (binding)
Settings: 12.5 µM; protein concentration 2 µM
Would you mind labelling by thermal shift delta Tm? At or over 0.5 °C is Met, under is Not met.

>  <COMPOUND>
O=C1CCc2c(Oc3ccc4c(c3)[C@@H]3[C@H](O4)[C@H]3c3nc4cc(C(F)(F)F)ccc4[nH]3)ccnc2N1 [Lifirafenib (BGB-283)]

>  <TARGET_DESC>
LOC_OS01G14860-cb001

>  <LABEL>
Met

$$$$
>  <COMPOUND>
C=CC(=O)Nc1cccc(Oc2nc(Nc3ccc(N4CCN(C)CC4)cc3OC)ncc2Cl)c1

>  <TARGET_DESC>
LOC_OS01G14860-cb001

>  <LABEL>
Not met

$$$$
>  <COMPOUND>
COc1cc2ncnc(Nc3cccc(Cl)c3F)c2cc1OC(=O)N1CCN(C)C[C@H]1C

>  <TARGET_DESC>
LOC_OS01G14860-cb001

>  <LABEL>
Not met

$$$$
>  <COMPOUND>
CCNC(=O)C#Cc1ccc2c(C(=Nc3ccc(CN(C)C)cc3)c3ccccc3)c(O)[nH]c2c1

>  <TARGET_DESC>
LOC_OS01G14860-cb001

>  <LABEL>
Met

$$$$
>  <COMPOUND>
CNC(=O)c1ccc(C)c(-n2c(C)cc(OCc3ccc(F)cc3F)c(Br)c2=O)c1

>  <TARGET_DESC>
LOC_OS01G14860-cb001

>  <LABEL>
Not met

$$$$
>  <COMPOUND>
CC(C)NC(=O)C1CCC(n2c(NC(=O)c3ccc(F)cc3)nc3ccc(CN4CCC(C(C)(C)O)CC4)cc32)CC1 (stereo not given) [Belizatinib (TSR-011)]

>  <TARGET_DESC>
LOC_OS01G14860-cb001

>  <LABEL>
Met

$$$$
>  <COMPOUND>
Cc1cc(Nc2cc(Cl)nc(Oc3ccc([N+](=O)[O-])cc3)n2)n[nH]1 [Autophinib]

>  <TARGET_DESC>
LOC_OS01G14860-cb001

>  <LABEL>
Met

$$$$
>  <COMPOUND>
COc1ccc2c(Oc3ccc(NC(=O)c4c(C)n(CC(C)(C)O)n(-c5ccccc5)c4=O)nc3)ccnc2c1

>  <TARGET_DESC>
LOC_OS01G14860-cb001

>  <LABEL>
Met

$$$$
>  <COMPOUND>
C=CC(=O)Nc1cccc(Nc2nc(Nc3ccc(N4CCN(C(C)=O)CC4)cc3OC)ncc2C(F)(F)F)c1 [Rociletinib (CO-1686, AVL-301)]

>  <TARGET_DESC>
LOC_OS01G14860-cb001

>  <LABEL>
Met

$$$$
>  <COMPOUND>
C[C@@H](Oc1cc(-c2cnn(C3CCNCC3)c2)cnc1N)c1c(Cl)ccc(F)c1Cl

>  <TARGET_DESC>
LOC_OS01G14860-cb001

>  <LABEL>
Not met

$$$$
>  <COMPOUND>
CCS(=O)(=O)c1cccc(-c2cc(C(=O)NC3CCN(C)CC3)c(C)c3[nH]c4ncc(C)cc4c23)c1

>  <TARGET_DESC>
LOC_OS01G14860-cb001

>  <LABEL>
Met

$$$$
>  <COMPOUND>
C#Cc1cccc(Nc2ncnc3cc(OC)c(OCCCCCCC(=O)NO)cc23)c1

>  <TARGET_DESC>
LOC_OS01G14860-cb001

>  <LABEL>
Met

$$$$
>  <COMPOUND>
Cc1cc2c(F)c(Oc3ncnn4cc(OC[C@@H](C)O)c(C)c34)ccc2[nH]1

>  <TARGET_DESC>
LOC_OS01G14860-cb001

>  <LABEL>
Not met

$$$$
>  <COMPOUND>
CCCNC(=O)Nc1ccc(Oc2ncnc3cc(OC)c(OC)cc23)cc1Cl

>  <TARGET_DESC>
LOC_OS01G14860-cb001

>  <LABEL>
Not met

$$$$
>  <COMPOUND>
O=C1NC(=O)[C@@H](c2cn3c4c(cccc24)CCC3)[C@@H]1c1c[nH]c2ccccc12 [Tivantinib (ARQ 197)]

>  <TARGET_DESC>
LOC_OS01G14860-cb001

>  <LABEL>
Not met

$$$$
>  <COMPOUND>
CN1CC[C@H](c2c(O)cc(O)c3c(=O)cc(-c4ccccc4Cl)oc23)[C@H](O)C1 [Flavopiridol (Alvocidib)]

>  <TARGET_DESC>
LOC_OS01G14860-cb001

>  <LABEL>
Met

$$$$
>  <COMPOUND>
O=S(=O)(NCCNC/C=C/c1ccc(Br)cc1)c1cccc2cnccc12

>  <TARGET_DESC>
LOC_OS01G14860-cb001

>  <LABEL>
Met

$$$$
>  <COMPOUND>
O=c1cc(N2CCOCC2)oc2c(-c3cccc4c3sc3ccccc34)cccc12

>  <TARGET_DESC>
LOC_OS01G14860-cb001

>  <LABEL>
Not met

$$$$
>  <COMPOUND>
CN1CCN(Cc2ccc(NC(=O)Nc3ccc(Oc4ccnc(N)n4)cc3)cc2C(F)(F)F)CC1

>  <TARGET_DESC>
LOC_OS01G14860-cb001

>  <LABEL>
Met

$$$$
>  <COMPOUND>
CC(=O)Nc1cccc(-n2c(=O)n(C3CC3)c(=O)c3c(Nc4ccc(I)cc4F)n(C)c(=O)c(C)c32)c1

>  <TARGET_DESC>
LOC_OS01G14860-cb001

>  <LABEL>
Not met

$$$$
>  <COMPOUND>
Cc1cc(C(=O)Nc2nc3cccc(Cl)c3n2[C@@H]2CCCCN(C(=O)/C=C/CN(C)C)C2)ccn1 [Nazartinib (EGF816, NVS-816)]

>  <TARGET_DESC>
LOC_OS01G14860-cb001

>  <LABEL>
Met

$$$$
>  <COMPOUND>
Cc1cc(Nc2cc(N)ncn2)c(=O)n2c1C(=O)NC21CCCCC1

>  <TARGET_DESC>
LOC_OS01G14860-cb001

>  <LABEL>
Met

$$$$
>  <COMPOUND>
CCn1c(-c2nonc2N)nc2cnc(Oc3cccc(NC(=O)c4ccc(OCCN5CCOCC5)cc4)c3)cc21

>  <TARGET_DESC>
LOC_OS01G14860-cb001

>  <LABEL>
Met

$$$$
>  <COMPOUND>
CNC(=O)c1cc(Oc2ccc(NC(=O)Nc3ccc(Cl)c(C(F)(F)F)c3)cc2)ccn1 [Sorafenib]

>  <TARGET_DESC>
LOC_OS01G14860-cb001

>  <LABEL>
Met

$$$$
>  <COMPOUND>
CC(C)=CC[C@@H](O)C1=CC(=O)c2c(O)ccc(O)c2C1=O [Shikonin]

>  <TARGET_DESC>
LOC_OS01G14860-cb001

>  <LABEL>
Met

$$$$
